B1: CPEB3 Ribozyme (parent)
chain: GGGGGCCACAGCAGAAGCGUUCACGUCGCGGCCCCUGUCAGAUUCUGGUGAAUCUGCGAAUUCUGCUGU

Variants of: B1
Assay: self-cleavage, relative activity (ratio to wild type); higher = more cleavage; co-transcriptional
Binary classification by self-cleavage, with 0.2 as an inclusive lower bound for Y; all other cases are N.

Illustrative cases are given below, each with its answer.
[
  {
    "variant_spec": "C12U U36C",
    "label": "Y"
  },
  {
    "variant_spec": "G3A A8G",
    "label": "Y"
  },
  {
    "variant_spec": "G4A C45G",
    "label": "Y"
  },
  {
    "variant_spec": "A13C U61A",
    "label": "Y"
  },
  {
    "variant_spec": "C7A C45U",
    "label": "Y"
  }
]

input: Record G11A C45U ; criterion: self-cleavage no lower than 0.2. Met?
output: Y

input: Record C18G G37A ; criterion: self-cleavage no lower than 0.2. Met?
output: N

input: Record G3A G5C ; criterion: self-cleavage no lower than 0.2. Met?
output: N

input: Record G5C A13G ; criterion: self-cleavage no lower than 0.2. Met?
output: Y

input: Record C22G U69A ; criterion: self-cleavage no lower than 0.2. Met?
output: Y

input: Record U20G U67A ; criterion: self-cleavage no lower than 0.2. Met?
output: Y

input: Record G3U A40C ; criterion: self-cleavage no lower than 0.2. Met?
output: N

input: Record G2A U53A ; criterion: self-cleavage no lower than 0.2. Met?
output: N

input: Record C39G C57A ; criterion: self-cleavage no lower than 0.2. Met?
output: Y
